The measurements presented in this section are drawn from patent US8133913B2.

Hi there, I'd appreciate the recorded IC50 for every entry that follows.
Target: PDGFR-beta (Homo sapiens)
Construct: made in house; host or cells: Sf9 insect cells, baculovirus
Sequence (P09619 33-1106): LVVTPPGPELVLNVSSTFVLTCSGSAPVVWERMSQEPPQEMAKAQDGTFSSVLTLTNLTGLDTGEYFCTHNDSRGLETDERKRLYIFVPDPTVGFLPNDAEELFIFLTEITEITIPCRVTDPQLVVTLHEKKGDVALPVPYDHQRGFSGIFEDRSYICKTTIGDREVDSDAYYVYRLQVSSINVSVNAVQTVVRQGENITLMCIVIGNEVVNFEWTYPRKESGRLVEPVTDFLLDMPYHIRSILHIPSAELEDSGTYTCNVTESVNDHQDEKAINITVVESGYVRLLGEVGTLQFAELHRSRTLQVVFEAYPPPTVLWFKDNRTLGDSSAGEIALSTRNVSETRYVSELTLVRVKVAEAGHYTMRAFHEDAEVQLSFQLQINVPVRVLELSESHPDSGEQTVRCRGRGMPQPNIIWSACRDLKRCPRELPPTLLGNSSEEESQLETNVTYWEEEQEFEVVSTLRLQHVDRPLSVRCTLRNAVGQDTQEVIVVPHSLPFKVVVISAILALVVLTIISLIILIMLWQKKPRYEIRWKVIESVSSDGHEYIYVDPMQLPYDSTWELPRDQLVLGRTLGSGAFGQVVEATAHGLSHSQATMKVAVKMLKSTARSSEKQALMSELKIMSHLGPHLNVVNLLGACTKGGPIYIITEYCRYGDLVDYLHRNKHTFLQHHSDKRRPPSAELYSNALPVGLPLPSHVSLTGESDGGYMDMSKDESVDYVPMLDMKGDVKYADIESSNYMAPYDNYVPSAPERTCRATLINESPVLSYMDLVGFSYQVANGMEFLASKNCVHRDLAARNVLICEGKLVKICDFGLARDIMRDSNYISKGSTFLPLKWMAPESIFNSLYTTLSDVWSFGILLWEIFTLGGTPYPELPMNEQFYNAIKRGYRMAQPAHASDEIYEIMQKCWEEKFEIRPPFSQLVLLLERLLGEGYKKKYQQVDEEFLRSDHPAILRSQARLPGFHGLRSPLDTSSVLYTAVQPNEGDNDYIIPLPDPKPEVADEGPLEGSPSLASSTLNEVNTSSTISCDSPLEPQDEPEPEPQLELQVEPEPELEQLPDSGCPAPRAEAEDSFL
Assay: Radiometric protein kinase assay (33PanQinase Activity Assay)
Type: biochemical
Conditions: 1 μM ATP

Ask | Which value of IC50 has been reported for O=c1ccc(=O)c2c1c1c(=O)c3ccccc3c1n2Cc1ccccc1 in the records?
Reply | > 10 µM

Next:
Ask | Reported IC50, compound CC(C)n1c2c(=O)ccc(=O)c2c2c(=O)c3ccccc3c21 : ____
Reply | > 10 µM

====

Target: ARK5 (Homo sapiens, UniProt O60285)
Construct: made in house; host or cells: Sf9 insect cells, baculovirus
Sequence (O60285 whole entry): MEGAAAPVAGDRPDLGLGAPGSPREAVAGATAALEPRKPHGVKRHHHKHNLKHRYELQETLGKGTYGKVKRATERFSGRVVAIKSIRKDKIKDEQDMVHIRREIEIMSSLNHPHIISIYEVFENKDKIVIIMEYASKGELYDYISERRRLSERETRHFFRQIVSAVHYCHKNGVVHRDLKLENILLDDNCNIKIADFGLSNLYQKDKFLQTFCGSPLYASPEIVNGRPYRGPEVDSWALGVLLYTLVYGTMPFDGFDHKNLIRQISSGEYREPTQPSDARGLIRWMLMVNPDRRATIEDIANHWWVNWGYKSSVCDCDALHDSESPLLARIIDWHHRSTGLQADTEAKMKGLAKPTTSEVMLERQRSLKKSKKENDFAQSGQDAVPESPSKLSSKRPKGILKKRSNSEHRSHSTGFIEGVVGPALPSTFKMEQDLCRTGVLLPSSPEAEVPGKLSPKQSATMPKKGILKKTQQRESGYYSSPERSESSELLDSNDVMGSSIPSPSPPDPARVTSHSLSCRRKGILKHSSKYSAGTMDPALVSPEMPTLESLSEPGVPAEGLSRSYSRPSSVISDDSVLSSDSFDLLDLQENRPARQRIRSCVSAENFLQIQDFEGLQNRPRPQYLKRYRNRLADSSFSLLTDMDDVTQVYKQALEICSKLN
Assay: Radiometric protein kinase assay (33PanQinase Activity Assay)
Type: biochemical
Conditions: 1 μM ATP; read-out: IC50 values [μM] ARK5
Assign IC50 to each entry below.
Remember to follow the number with its unit.

Ask | GET /values?readout=IC50&system=ARK5 (Homo sapiens, UniProt O60285)&item= CC(C)n1c2c(=O)ccc(=O)c2c2c(=O)c3ccccc3c21 [Compound 6b]
Reply | 0.17 µM

Here's the next entry for you.
Ask | Entry O=c1ccc(=O)c2c1c1c(=O)c3ccccc3c1n2Cc1ccccc1 [Compound 6c] , system ARK5 (Homo sapiens, UniProt O60285): what IC50 was measured?
Reply | 1.3 µM
